For each record, write down the corresponding self-cleavage kobs at 10000 uM GlcN6P.
B1: glmS ribozyme (parent)
chain: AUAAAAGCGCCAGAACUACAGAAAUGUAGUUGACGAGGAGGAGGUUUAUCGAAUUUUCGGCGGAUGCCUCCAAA

Variants of: B1
Test Name: self-cleavage kobs at 10000 uM GlcN6P; higher = faster cleavage; RNA array
Condition Context: with glucosamine-6-phosphate
Variants at the floor of the assay were thinned out.
Kindly provide the numeric value in s⁻¹ only, without the unit symbol.

Need self-cleavage kobs at 10000 uM GlcN6P of U31A C70A , thanks.
0.000146

Need self-cleavage kobs at 10000 uM GlcN6P of A14C C58A , thanks.
0.000165

Need self-cleavage kobs at 10000 uM GlcN6P of C10G G60C , thanks.
0.00198

Need self-cleavage kobs at 10000 uM GlcN6P of U54C A64G , thanks.
0.0123

Need self-cleavage kobs at 10000 uM GlcN6P of G29U C58A , thanks.
0.000231

Need self-cleavage kobs at 10000 uM GlcN6P of G13C A53G , thanks.
0.00013

Need self-cleavage kobs at 10000 uM GlcN6P of U69G , thanks.
0.000467

Need self-cleavage kobs at 10000 uM GlcN6P of G37A U54G , thanks.
0.00234

Need self-cleavage kobs at 10000 uM GlcN6P of A42C U65G U69G , thanks.
0.00402

Need self-cleavage kobs at 10000 uM GlcN6P of A12C C71G , thanks.
0.00109

Need self-cleavage kobs at 10000 uM GlcN6P of U45C U65G , thanks.
0.000154

Need self-cleavage kobs at 10000 uM GlcN6P of G32C U55G , thanks.
6.68e-05

Need self-cleavage kobs at 10000 uM GlcN6P of A6U C70U , thanks.
0.000197

Need self-cleavage kobs at 10000 uM GlcN6P of C11U U45G U54A , thanks.
0.000152

Need self-cleavage kobs at 10000 uM GlcN6P of A33U U69C , thanks.
6.49e-05

Need self-cleavage kobs at 10000 uM GlcN6P of A39U U56A , thanks.
0.00963

Need self-cleavage kobs at 10000 uM GlcN6P of C16G G66U , thanks.
0.000152

Need self-cleavage kobs at 10000 uM GlcN6P of C16U G59U , thanks.
3.73e-05

Need self-cleavage kobs at 10000 uM GlcN6P of A15C U31A , thanks.
0.0067

Need self-cleavage kobs at 10000 uM GlcN6P of U65C G66A , thanks.
0.000416

Need self-cleavage kobs at 10000 uM GlcN6P of A39G U56G , thanks.
0.0224

Need self-cleavage kobs at 10000 uM GlcN6P of A15G G32U , thanks.
0.000917

Need self-cleavage kobs at 10000 uM GlcN6P of A14G A39G G44C C68U , thanks.
3.6e-05

Need self-cleavage kobs at 10000 uM GlcN6P of A42G G66A , thanks.
0.0267

Need self-cleavage kobs at 10000 uM GlcN6P of U46G A53G , thanks.
0.00811

Need self-cleavage kobs at 10000 uM GlcN6P of A12G U56A , thanks.
0.000592

Need self-cleavage kobs at 10000 uM GlcN6P of A23C C70A , thanks.
0.000156

Need self-cleavage kobs at 10000 uM GlcN6P of G32U U47G U69G , thanks.
0.000404

Need self-cleavage kobs at 10000 uM GlcN6P of U49G C68U , thanks.
0.000144

Need self-cleavage kobs at 10000 uM GlcN6P of A33C C50G C71U , thanks.
5.96e-05

Need self-cleavage kobs at 10000 uM GlcN6P of G40C A64G C71U , thanks.
0.00117

Need self-cleavage kobs at 10000 uM GlcN6P of A14G G29U U47G C70G , thanks.
0.000118

Need self-cleavage kobs at 10000 uM GlcN6P of A53C C70U , thanks.
0.00392

Need self-cleavage kobs at 10000 uM GlcN6P of U31A U55G , thanks.
0.0123

Need self-cleavage kobs at 10000 uM GlcN6P of C11U C50A C70G , thanks.
5.4e-05

Need self-cleavage kobs at 10000 uM GlcN6P of A14G U31A C67G , thanks.
0.000966

Need self-cleavage kobs at 10000 uM GlcN6P of U54C C71U , thanks.
0.036

Need self-cleavage kobs at 10000 uM GlcN6P of G13U G66A , thanks.
0.000729

Need self-cleavage kobs at 10000 uM GlcN6P of A14G A42G , thanks.
0.0773

Need self-cleavage kobs at 10000 uM GlcN6P of U45G U57G , thanks.
3.68e-05

Need self-cleavage kobs at 10000 uM GlcN6P of G43U C68G , thanks.
0.00756

Need self-cleavage kobs at 10000 uM GlcN6P of A6U A15U , thanks.
3.44e-05

Need self-cleavage kobs at 10000 uM GlcN6P of G29C C58U C71U , thanks.
5.59e-05

Need self-cleavage kobs at 10000 uM GlcN6P of A12G A64G , thanks.
0.000537

Need self-cleavage kobs at 10000 uM GlcN6P of U31C U56G , thanks.
0.00757

Need self-cleavage kobs at 10000 uM GlcN6P of A14C U31A U69G , thanks.
5.33e-05

Need self-cleavage kobs at 10000 uM GlcN6P of G29U G66U , thanks.
0.000156
